Origin of the recorded values: patent US6642226B2

Biological target: human NK1 receptor (Homo sapiens, UniProt P25103)
Construct: expressed in transfected cells; host or cells: CHO cells, Semliki virus expression system; membrane suspension
Sequence (P25103 whole entry): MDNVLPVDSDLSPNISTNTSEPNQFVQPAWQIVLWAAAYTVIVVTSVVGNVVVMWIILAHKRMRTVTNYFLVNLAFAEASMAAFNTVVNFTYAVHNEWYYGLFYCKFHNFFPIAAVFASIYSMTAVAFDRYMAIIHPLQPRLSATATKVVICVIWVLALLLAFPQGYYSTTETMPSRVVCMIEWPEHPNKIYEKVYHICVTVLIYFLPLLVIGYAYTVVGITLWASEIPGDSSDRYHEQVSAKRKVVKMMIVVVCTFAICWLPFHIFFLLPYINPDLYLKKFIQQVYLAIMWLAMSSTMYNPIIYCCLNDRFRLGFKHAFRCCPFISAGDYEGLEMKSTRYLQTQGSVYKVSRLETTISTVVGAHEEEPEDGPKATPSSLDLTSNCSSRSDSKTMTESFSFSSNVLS
Assay: NK1 receptor binding, [3H]substance P displacement
Conditions: human NK1 receptors in CHO cells, [3H]substance P 0.6 nM; read-out: pKi (affinity to the NK-1 receptor) (converted)
// reported Ki per item

{"MOLECULE": "NC1CCN(C2CCN(C(=O)c3cc(C(F)(F)F)cc(C(F)(F)F)c3)CC2c2ccc(F)cc2)C1 (mixture of isomers)", "Ki [nM]": 1.78}
{"MOLECULE": "O=C(c1cc(C(F)(F)F)cc(C(F)(F)F)c1)N1CCC(N2CCC(NC3CC3)CC2)C(c2ccc(Cl)cc2)C1 (racemic)", "Ki [nM]": 0.794}
{"MOLECULE": "O=C(c1cc(C(F)(F)F)cc(C(F)(F)F)c1)N1CC[C@H](N2CCNCC2)[C@H](c2ccc(F)cc2)C1 (racemic)", "Ki [nM]": 2.09}
